Test: in vivo
Conditions: male, Slc:ICR, mouse, iv

MOLECULE: COc1cc(/C=C/C(O)=C/C(=O)/C=C/c2ccc(O[C@@H]3O[C@H](C(=O)O)[C@@H](O)[C@H](O)[C@H]3O)c(OC)c2)ccc1O [curcumin monoglucuronide]
LD50 at 14 days: 500 to 1000 mg/kg

---

Assay: Intravenous administration test: concentration of curcumin conjugates and free curcumin in plasma
Type: in vivo, SD rats
Settings: rat, 30 mg/kg i.v. of conjugate
MEASURE: AUC 0.02-8 h (ng·h/mL) of free curcumin in plasma

MOLECULE: COc1cc(/C=C/C(=O)CC(=O)/C=C/c2ccc(O[C@@H]3O[C@H](C(=O)O)[C@@H](O)[C@H](O)[C@H]3O)c(OC)c2)ccc1O [curcumin monoglucuronide]
REPORTED RESULT: 2780
